- assayed-target: recombinant human MAO-A (monoamine oxidase-A) (Homo sapiens, UniProt P21397)
- Construct: purchased Sigma-Aldrich
- Sequence (P21397 1-527): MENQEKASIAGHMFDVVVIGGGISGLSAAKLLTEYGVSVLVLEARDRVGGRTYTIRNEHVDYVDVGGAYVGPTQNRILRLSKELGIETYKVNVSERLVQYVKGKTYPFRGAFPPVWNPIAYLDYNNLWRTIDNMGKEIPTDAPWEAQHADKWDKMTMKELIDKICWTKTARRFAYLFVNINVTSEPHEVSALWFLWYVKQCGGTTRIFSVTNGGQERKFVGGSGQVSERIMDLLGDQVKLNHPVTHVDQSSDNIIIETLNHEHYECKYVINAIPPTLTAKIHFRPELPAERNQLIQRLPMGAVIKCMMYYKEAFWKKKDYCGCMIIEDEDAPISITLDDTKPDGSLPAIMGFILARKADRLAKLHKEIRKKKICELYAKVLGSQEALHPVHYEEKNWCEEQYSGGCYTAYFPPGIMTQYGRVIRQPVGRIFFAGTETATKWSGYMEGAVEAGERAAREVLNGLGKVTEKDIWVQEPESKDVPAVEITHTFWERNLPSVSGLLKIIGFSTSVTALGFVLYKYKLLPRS
- procedure-details: Activity evaluation on recombinant human MAO-A (Amplex Red/HRP-coupled assay, 0.5 mM tyramine substrate)
- Format: biochemical
- condition-context: 0.5 mM tyramine substrate, read-out: Inhibitory Activity (IC50, nM) MAO-A
Counter-ions that a name gives are not always drawn.
assay-endpoint: IC50

# compound, endpoint-value
rows = [
    ("CCn1cc(-c2ccc(-c3ccc(Cn4cnn(CC(CN)=C(F)F)c4=O)s3)cc2)cn1 [Example 286, Trifluoroacetate]", "2620 nM"),
]

Item Cc1cc(-c2ccc3nonc3c2)cnc1-n1cnn(CC(CN)=C(F)F)c1=O [Example 227, Trifluoroacetate] : provide IC50 > 100000 nM

Please look at this compound and report its IC50: NCC(Cn1ncn(Cc2cc(-c3cnn(C(F)F)c3)cs2)c1=O)=C(F)F [Example 194, Trifluoroacetate] > 100000 nM

Return the recorded IC50 value; entry: COc1cc(-c2cnc(-n3cnn(CC(CN)=C(F)F)c3=O)c(C)c2)cc(OC)c1OC [Example 224, Trifluoroacetate] > 100000 nM
